B1: glmS ribozyme (parent)
chain: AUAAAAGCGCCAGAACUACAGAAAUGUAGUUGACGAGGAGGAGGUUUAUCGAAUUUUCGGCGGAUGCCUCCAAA

variants of: B1; assay: self-cleavage kobs at 2500 uM GlcN6P; higher = faster cleavage; RNA array; settings: with glucosamine-6-phosphate
Fewer inactive variants are shown than the library holds.
ENDPOINT NAME: self-cleavage kobs at 2500 uM GlcN6P (s⁻¹)
Give bare numbers, in s⁻¹.

ITEM SEQUENCE: AUAAAAGCGCCAGAACUACAGAAAUGUAGUUGACGAGGAGGCGGUUUAUCGAAUUUUCGGCGGAUGCCGCCAAA [A42C U69G]
VAL: 0.00742
--
ITEM SEQUENCE: AUAAAAGCGCCCGAACUACAGAAAUGUAGUUGACGAGGAGGAGGUUUAUCGAAGUUUCGGCGGAUUCCUCCAAA [A12C U54G G66U]
VAL: 0.000495
--
ITEM SEQUENCE: AUAAAAGCGCUAGACCUACAGAAAUGUAGUUGACGAGGAGGAGGUUUAUCUAAUUUUCGGCGGAUGCCUACAAA [C11U A15C G51U C70A]
VAL: 0.000111
--
ITEM SEQUENCE: AUAAAAGCGCCAGAGCUACAGAAAUGUAGUUGACGAGGAGGAGGUUUAGCGAAUUUUCGGCGGAUGCCUCCAAA [A15G U49G]
VAL: 0.000499
--
ITEM SEQUENCE: AUAAAAGCGCCAGAACUACAGAAAUGUAGUUUACGAGGAGGAGGUUUAUCGAAUUUUCGGCGGAUGCCUCGAAA [G32U C71G]
VAL: 7.51e-05
--
ITEM SEQUENCE: AUAAAAGCGCCAGACCUACAGAAAUGUAGUUGACGAGGAGGGGGUUUAUCGAAUUUUCGGCGGAUGCCUGCAAA [A15C A42G C70G]
VAL: 7.41e-05

Consider the following items and state reported self-cleavage kobs at 2500 uM GlcN6P for each.
1. AUAAAAGCGCCAGAACUACAGAAAUGUAGUAGACGAGGAGGAGGUUCAUCGAAGUUUCGGCGGAUGCCUCCAAA [U31A U47C U54G]
2. AUAAAAGCGCCAGAACUACAGAAAUGUAGUCGACGAGGAGGAGGUUUAUCGAAUUAUCGGCGGAUGUCUCCAAA [U31C U56A C67U]

Given back:
1: 0.00068; 2: 0.000427

Provide self-cleavage kobs at 2500 uM GlcN6P for all items below, preserving their order.
1. AUAAAAGCGCCAGAACUAAAGAAAUGUAGUUGACGAGGAGGAGGUUUAUCGAACUUUAGGCGGAUGCGUCCAAA [C19A U54C C58A C68G]
2. AUAAAAGCGCCAGAACUACAGAAAUUUAGUUGACGAGGAGGAGGUUUAUCGAAUUUUCGGCGGAUGCCUUCAAA [G26U C70U]

Given back:
0.00036
0.000552
